B1: TPR 5TU (parent)
chain: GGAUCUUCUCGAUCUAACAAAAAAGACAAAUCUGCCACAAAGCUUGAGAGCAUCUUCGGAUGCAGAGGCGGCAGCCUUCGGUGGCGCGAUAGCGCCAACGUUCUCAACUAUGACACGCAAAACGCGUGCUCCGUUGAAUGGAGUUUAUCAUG

# Variants of: B1
# Assay Explanation: polymerase ribozyme fitness, log enrichment relative to wild type (log ratio); higher = more active; in vitro selection for triplet polymerase activity
This sample holds only a part of the variants without activity.
Label true for high-side polymerase ribozyme fitness (log ratio) (at or above -2) and false for low-side polymerase ribozyme fitness (log ratio) (below it).

These solved cases illustrate the format of a correct answer.
U33G U44A G46C A73G C76A C95U G133U    false
A49G C95U    true
U13G C85U C99U G128C C132U    false
G83U C96A    true
A28U U77C    false
C18U U31A A60G G84C A89C C105U    false
A19U A47G U53G G67C C99U A142C A147C    false
A41U G80C G88U C103A A107G    false
C85U U148C    false
G11A A21C A24C C43U C85A U111C    false

Check the entry A23G G62A A73U C76G G88A C105U A106G : does polymerase ribozyme fitness (log ratio) equal or exceed -2?
false

Check the entry A28U C72U : does polymerase ribozyme fitness (log ratio) equal or exceed -2?
false

Check the entry U44A G80A A138U A150G : does polymerase ribozyme fitness (log ratio) equal or exceed -2?
false
